- measurement notes: Fluorescence titration of VEPEP-4 binding to small molecule cargo
- conditions used: cargo porphyrin
*1 amine or outer side, *2 acyl side, *3 side chain or, on linkers, in order; H or OH if unused. Where a SMILES comes first, the peptide text is derived from it. [ ]: non-standard residue; d: D form. Cysteamide = C(CS[*:3])N[*:1]; βAla = NCCC(=O)O
Entries and their Kd
Your answer should be a plain number; it is taken to be in nM.

Completed entries (count: 2):
INSERT INTO measurements (compound, unit_abbrev, measured) VALUES
  ('CC(=O)NCCC(=O)N[C@@H](Cc1c[nH]c2ccccc12)C(=O)N[C@@H](Cc1ccccc1)C(=O)N[C@@H](CCCNC(=N)N)C(=O)N[C@@H](CC(C)C)C(=O)N[C@@H](CO)C(=O)N[C@@H](CC(C)C)C(=O)N[C@@H](CCCNC(=N)N)C(=O)N[C@@H](Cc1ccccc1)C(=O)N[C@@H](Cc1c[nH]c2ccccc12)C(=O)N[C@@H](CCCNC(=N)N)C(=O)NCCS [VEPEP-3j, X1WFRLSLRFWR] (Ac-[βAla]WFRLSLRFWR-Cysteamide)', 'nM', 500),
  ('CC(=O)NCCC(=O)N[C@@H](Cc1c[nH]c2ccccc12)C(=O)N[C@@H](Cc1ccccc1)C(=O)N[C@@H](CCCNC(=N)N)C(=O)N[C@@H](CC(C)C)C(=O)N[C@@H](CO)C(=O)N[C@@H](CC(C)C)C(=O)N[C@@H](CCCNC(=N)N)C(=O)N[C@@H](Cc1ccccc1)C(=O)N[C@@H](Cc1c[nH]c2ccccc12)C(=O)NCCS [Short 4, X1WFRLSLRFW] (Ac-[βAla]WFRLSLRFW-Cysteamide)', 'nM', 600);

Now look at this entry.
**Q:** Requested field: Kd. Item: CC(=O)NCCC(=O)N[C@@H](Cc1c[nH]c2ccccc12)C(=O)N[C@@H](Cc1c[nH]c2ccccc12)C(=O)N[C@@H](CCCNC(=N)N)C(=O)N[C@@H](CC(C)C)C(=O)N[C@@H](CO)C(=O)N[C@@H](CC(C)C)C(=O)N[C@@H](CCCNC(=N)N)C(=O)N[C@@H](Cc1c[nH]c2ccccc12)C(=O)N[C@@H](Cc1c[nH]c2ccccc12)C(=O)NCCS [VEPEP-3i, X1WWRLSLRWW] (Ac-[βAla]WWRLSLRWW-Cysteamide)
**A:** 400

Where do the numbers come from? From patent US9834581B2.
